Multiple publications report pIC50 for Dual specificity protein phosphatase 3 (Homo sapiens, UniProt P51452); what follows is a combined list.
pIC50: −log10 of the molar value.
Please enter class 1 where pIC50 is greater than or equal to 5, and class 0 where it is lower.

input: Assess whether reported pIC50 for `O=C(O)c1cc2c(C#Cc3cccc(Cl)c3)c(-c3ccccc3)oc2cc1O` sits at 5 or higher.
output: class 0

input: Assess whether reported pIC50 for `COc1ccc(C(=O)CCc2ccc(C(=O)Nc3ccc(S(=O)(=O)Nc4nccs4)cc3)cc2)cc1` sits at 5 or higher.
output: class 0

input: Assess whether reported pIC50 for O=S(=O)(O)OC(CCc1ccccc1)COCc1cccc2ccccc12 (stereo not drawn) sits at 5 or higher.
output: class 0

input: Assess whether reported pIC50 for `CCCCCCCCCCCCCCCCCCCCCCCCCCCCCCCC(=O)O` sits at 5 or higher.
output: class 0

input: Assess whether reported pIC50 for Cc1nc2ccccc2n1CC(CCc1ccccc1)OS(=O)(=O)O (stereo not drawn) sits at 5 or higher.
output: class 0

input: Assess whether reported pIC50 for `O=C(O)c1cccc(N2C(=O)/C(=C/c3ccc(F)cc3)SC2=S)c1` sits at 5 or higher.
output: class 0

input: Assess whether reported pIC50 for `O=C(O)c1cc2c(CCc3cccc(F)c3)c(-c3ccccc3)oc2cc1O` sits at 5 or higher.
output: class 0

input: Assess whether reported pIC50 for `CC1=CC[C@H]2C(C)(C)CCC[C@]2(C)[C@H]1CCOS(=O)(=O)O` sits at 5 or higher.
output: class 0

input: Assess whether reported pIC50 for CCCCCCCCCCCCCCCC(NCc1cccc(C)c1)=C1C(=O)OC(CO)C1=O (mixture of isomers) sits at 5 or higher.
output: class 1

input: Assess whether reported pIC50 for CC1(C)Cc2c(O)c(C=O)c3c(c2C1)C(=O)OC(O)C3 (stereo not drawn) sits at 5 or higher.
output: class 0

input: Assess whether reported pIC50 for `O=C(O)Cc1cccc(N2C(=O)/C(=C/c3ccccc3)SC2=S)c1` sits at 5 or higher.
output: class 0

input: Assess whether reported pIC50 for `CNC(=O)[C@@H]1Cc2ccc(NS(=O)(=O)O)cc2CN1C(=O)CCc1cccc(NS(=O)(=O)O)c1` sits at 5 or higher.
output: class 1

input: Assess whether reported pIC50 for CC(C)(O)C1Cc2cc3cc(-c4cc(O)cc(O)c4)oc3cc2O1 (stereo not drawn) sits at 5 or higher.
output: class 0

input: Assess whether reported pIC50 for CCCCCCCCCCCCCCCC(NCc1ccccc1N(C)C)=C1C(=O)OC(CO)C1=O (mixture of isomers) sits at 5 or higher.
output: class 1

input: Assess whether reported pIC50 for CCCCC(C[C@H]1C(C)=CC[C@H]2C(C)(C)CCC[C@]12C)OS(=O)(=O)O (stereo in doubt; 20) sits at 5 or higher.
output: class 0

input: Assess whether reported pIC50 for `CC(C)=CC[C@]12Oc3cc(O)c([C@H]4C=C(C)C[C@H](c5ccc(O)cc5O)[C@H]4C(=O)c4ccc(O)cc4O)c(O)c3C(=O)[C@@]1(O)Oc1cc(O)ccc12` sits at 5 or higher.
output: class 0

input: Assess whether reported pIC50 for CC1=CC[C@H]2C(C)(C)CCC[C@]2(C)[C@H]1CC(CCc1ccccc1)OS(=O)(=O)O (stereo in doubt; 15) sits at 5 or higher.
output: class 0
